Entries below carry reported MIC on Escherichia coli K99.
Unit µM implied. Number only.

Worked cases, MIC given:
Prompt: For CC[C@H](C)[C@H](NC(=O)[C@H](CCCN=C(N)N)NC(=O)[C@H](C)NC(=O)[C@H](C)N)C(=O)N[C@H](C(=O)N[C@@H](CC(C)C)C(=O)N[C@@H](CCCN=C(N)N)C(=O)N[C@H](C(=O)N[C@@H](CCCN=C(N)N)C(=O)N[C@@H](Cc1ccccc1)C(=O)N[C@@H](CCCN=C(N)N)C(N)=O)[C@@H](C)O)[C@@H](C)CC [AARIILRTRFR] , what is its reported MIC?
Completion: 4

Prompt: For CC[C@H](C)[C@H](NC(=O)[C@H](CCCN=C(N)N)NC(=O)[C@H](C)NC(=O)[C@H](C)N)C(=O)N[C@H](C(=O)N[C@@H](CC(C)C)C(=O)N[C@@H](CCCN=C(N)N)C(=O)N[C@@H](Cc1c[nH]c2ccccc12)C(=O)N[C@@H](CCCN=C(N)N)C(=O)N[C@@H](Cc1ccccc1)C(=O)N[C@@H](CCCN=C(N)N)C(N)=O)[C@@H](C)CC [AARIILRWRFR] , what is its reported MIC?
Completion: 2

Would you kindly look at the next entry?
Prompt: For CC(C)C[C@H](NC(=O)[C@@H]1CCCN1C(=O)[C@H](CCCCN)NC(=O)[C@H](CC(C)C)NC(=O)[C@H](CC(C)C)NC(=O)[C@@H]1CCCN1C(=O)[C@H](CCCCN)NC(=O)[C@H](CC(C)C)NC(=O)[C@H](CC(C)C)NC(=O)[C@@H]1CCCN1C(=O)[C@H](CCCCN)NC(=O)[C@H](CC(C)C)NC(=O)[C@H](CC(C)C)NC(=O)[C@@H]1CCCN1C(=O)[C@H](CCCCN)NC(=O)[C@@H](N)CC(C)C)C(N)=O [LKPLLKPLLKPLLKPL] , what is its reported MIC?
Completion: 16
